tested-on: Flt3(h) (Homo sapiens)
test-details: KinaseProfiler kinase assay
Type: biochemical
assay-setup: Flt3; read-out: IC50
readout-label: IC50 (nM)

# molecule, unit-abbreviation, recorded-number
measured = [
    ("C/C=C/c1cc(Nc2cc(N3CCN(C)CC3)nc(Oc3ccc4[nH]c(C)cc4c3F)n2)n[nH]1 [Compound 53]", "nM", 13),
]

----------
tested-on: Flt3(h) (Homo sapiens, UniProt P36888)
Sequence (P36888 27-993): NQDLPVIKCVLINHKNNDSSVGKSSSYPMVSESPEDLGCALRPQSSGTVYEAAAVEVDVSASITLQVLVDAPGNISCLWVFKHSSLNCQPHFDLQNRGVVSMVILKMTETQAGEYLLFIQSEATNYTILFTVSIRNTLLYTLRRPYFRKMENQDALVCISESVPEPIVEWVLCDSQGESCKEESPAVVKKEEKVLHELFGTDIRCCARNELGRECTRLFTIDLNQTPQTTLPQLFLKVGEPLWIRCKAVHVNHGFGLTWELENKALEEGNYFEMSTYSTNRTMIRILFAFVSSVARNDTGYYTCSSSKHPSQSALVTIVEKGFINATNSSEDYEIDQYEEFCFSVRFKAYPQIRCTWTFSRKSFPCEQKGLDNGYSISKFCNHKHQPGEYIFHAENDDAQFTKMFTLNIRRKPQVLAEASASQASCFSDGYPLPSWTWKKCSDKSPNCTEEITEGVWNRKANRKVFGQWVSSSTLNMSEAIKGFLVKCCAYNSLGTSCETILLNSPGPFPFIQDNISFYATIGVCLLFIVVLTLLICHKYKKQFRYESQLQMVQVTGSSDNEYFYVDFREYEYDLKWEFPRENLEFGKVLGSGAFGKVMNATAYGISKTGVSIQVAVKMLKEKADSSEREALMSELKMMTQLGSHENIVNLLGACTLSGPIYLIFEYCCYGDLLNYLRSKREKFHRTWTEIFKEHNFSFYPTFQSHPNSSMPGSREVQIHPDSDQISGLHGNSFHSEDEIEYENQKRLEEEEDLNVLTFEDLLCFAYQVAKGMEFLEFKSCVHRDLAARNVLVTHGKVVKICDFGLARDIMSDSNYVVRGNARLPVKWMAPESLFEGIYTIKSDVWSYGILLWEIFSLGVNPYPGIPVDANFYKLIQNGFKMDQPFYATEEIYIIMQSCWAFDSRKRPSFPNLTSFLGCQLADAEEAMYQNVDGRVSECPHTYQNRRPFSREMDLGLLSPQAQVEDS
test-details: KinaseProfiler kinase assay
Format: biochemical
Entries and their measured inhibition at 1 µM follow.
readout-label: inhibition at 1 µM (%)

# compound, tested-on, readout-label, unit-abbreviation, recorded-number
rows = [
    ("Cc1cc2c(F)c(Oc3nc(Nc4cc(C5CC5)[nH]n4)cc(N4CCN(C)CC4)n3)ccc2[nH]1", "Flt3(h) (Homo sapiens, UniProt P36888)", "inhibition at 1 µM", "%", 100),
    ("Cc1cc2c(F)c(Oc3nc(Nc4cc(C5CC5)[nH]n4)cc(N4CCN(C)CC4)n3)ccc2n1C", "Flt3(h) (Homo sapiens, UniProt P36888)", "inhibition at 1 µM", "%", 102),
    ("C/C=C/c1cc(Nc2cc(N3CCC(N(CC)CC)C3)nc(Oc3ccc4[nH]c(C)cc4c3F)n2)n[nH]1 (stereo not drawn)", "Flt3(h) (Homo sapiens, UniProt P36888)", "inhibition at 1 µM", "%", 99),
    ("C/C=C/c1cc(Nc2cc(N3CCC(O)CC3)nc(Oc3ccc4[nH]c(C)cc4c3F)n2)n[nH]1", "Flt3(h) (Homo sapiens, UniProt P36888)", "inhibition at 1 µM", "%", 99),
    ("C/C=C/c1cc(Nc2cc(N3CCNCC3)nc(Oc3cc(F)c4[nH]c(C)cc4c3F)n2)n[nH]1", "Flt3(h) (Homo sapiens, UniProt P36888)", "inhibition at 1 µM", "%", 100),
    ("Cc1cc2c(F)c(Oc3nc(Nc4cc(C5CC5)[nH]n4)cc(N4CCN(CCO)CC4)n3)ccc2[nH]1", "Flt3(h) (Homo sapiens, UniProt P36888)", "inhibition at 1 µM", "%", 100),
    ("Cc1cc2c(F)c(Oc3nc(Nc4cc(C5CC5)[nH]n4)cc(N4CCOCC4)n3)ccc2[nH]1", "Flt3(h) (Homo sapiens, UniProt P36888)", "inhibition at 1 µM", "%", 101),
    ("Cc1cc2c(F)c(Oc3nc(Nc4cc(C5CC5)[nH]n4)cc(N4CCN(C)CC4)n3)cc(F)c2[nH]1", "Flt3(h) (Homo sapiens, UniProt P36888)", "inhibition at 1 µM", "%", 101),
    ("Cc1cc2c(F)c(Oc3nc(Nc4cc(C5CC5)[nH]n4)cc(N4CC(O)C4)n3)ccc2[nH]1", "Flt3(h) (Homo sapiens, UniProt P36888)", "inhibition at 1 µM", "%", 100),
    ("C/C=C/c1cc(Nc2cc(N3CCN(C)CC3)nc(Oc3ccc4[nH]c(C)cc4c3Cl)n2)n[nH]1", "Flt3(h) (Homo sapiens, UniProt P36888)", "inhibition at 1 µM", "%", 102),
    ("Cc1cc2c(F)c(Oc3nc(Nc4cc(C5CC5)[nH]n4)cc(N4CCOC(CN(C)C)C4)n3)ccc2[nH]1 (stereo not drawn)", "Flt3(h) (Homo sapiens, UniProt P36888)", "inhibition at 1 µM", "%", 100),
    ("Cc1cc2c(F)c(Oc3nc(Nc4cc(C5CC5)[nH]n4)cc(N4CCN(c5ccncc5)CC4)n3)ccc2[nH]1", "Flt3(h) (Homo sapiens, UniProt P36888)", "inhibition at 1 µM", "%", 100),
    ("C/C=C/c1cc(Nc2cc(N3CCC(OC)C3)nc(Oc3ccc4[nH]c(C)cc4c3F)n2)n[nH]1 (stereo not drawn)", "Flt3(h) (Homo sapiens, UniProt P36888)", "inhibition at 1 µM", "%", 99),
    ("C/C=C/c1cc(Nc2cc(N3CCOCC3)nc(Oc3ccc4c(cc(C)n4C)c3F)n2)n[nH]1", "Flt3(h) (Homo sapiens, UniProt P36888)", "inhibition at 1 µM", "%", 102),
    ("CC(=O)N1CCN(c2cc(Nc3cc(C4CC4)[nH]n3)nc(Oc3ccc4[nH]c(C)cc4c3F)n2)CC1", "Flt3(h) (Homo sapiens, UniProt P36888)", "inhibition at 1 µM", "%", 100),
]

----------
test-details: Plasma concentration after oral dosing in MV4-11 tumor-bearing mice (LCMS)
Type: in vivo
assay-setup: SCID, mouse, 24 hour after single oral 50 mg/kg
readout-label: concentration at 24 h (nM)

# smiles-record, unit-abbreviation, recorded-number
rows = [
    ("C/C=C/c1cc(Nc2cc(N3CCN(C)CC3)nc(Oc3cc(F)c4[nH]c(C)cc4c3F)n2)n[nH]1", "nM", 7),
]

----------
tested-on: cSRC(h) (Homo sapiens, UniProt P12931)
Sequence (P12931 whole entry): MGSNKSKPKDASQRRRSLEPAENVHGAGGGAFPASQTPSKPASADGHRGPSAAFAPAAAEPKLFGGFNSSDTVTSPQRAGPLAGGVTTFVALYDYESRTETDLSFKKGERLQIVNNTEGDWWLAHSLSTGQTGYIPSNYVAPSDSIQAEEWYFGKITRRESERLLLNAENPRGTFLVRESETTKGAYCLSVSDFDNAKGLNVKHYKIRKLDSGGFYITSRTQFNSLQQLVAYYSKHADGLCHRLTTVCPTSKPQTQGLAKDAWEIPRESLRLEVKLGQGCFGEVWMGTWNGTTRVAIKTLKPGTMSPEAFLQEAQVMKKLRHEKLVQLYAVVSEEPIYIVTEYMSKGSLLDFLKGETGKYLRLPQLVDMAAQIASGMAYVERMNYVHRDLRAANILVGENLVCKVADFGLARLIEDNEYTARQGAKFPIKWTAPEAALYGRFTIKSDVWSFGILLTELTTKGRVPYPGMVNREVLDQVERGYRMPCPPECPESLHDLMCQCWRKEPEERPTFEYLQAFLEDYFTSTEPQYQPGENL
test-details: KinaseProfiler kinase assay
Type: biochemical
assay-setup: cSrc; read-out: IC50
readout-label: IC50 (nM)

# smiles-record, tested-on, readout-label, recorded-number
rows = [
    ("C/C=C/c1cc(Nc2cc(N3CCN(C)CC3)nc(Oc3ccc4[nH]c(C)cc4c3F)n2)n[nH]1", "cSRC(h) (Homo sapiens, UniProt P12931)", "IC50", 2),
]

----------
Test system: MV4.11
test-details: CellTiterBlue cell growth inhibition
Type: cell-based
assay-setup: Homo sapiens; MV4.11, 72 hours
GI50 strictly under 0.2 nM means Condition met; at 0.2 nM or over means Condition not met.

# smiles-record, tested-on, group-label
measured = [
    ("Cc1cc2c(F)c(Oc3nc(Nc4cc(C5CC5)[nH]n4)cc(N4CCNCC4)n3)ccc2[nH]1", "MV4.11", "Condition not met"),
    ("C/C=C/c1cc(Nc2cc(N3CCN(CCO)CC3)nc(Oc3cc(F)c4[nH]c(C)cc4c3F)n2)n[nH]1", "MV4.11", "Condition met"),
    ("C/C=C/c1cc(Nc2cc(N3CCNCC3)nc(Oc3cc(F)c4[nH]c(C)cc4c3F)n2)n[nH]1", "MV4.11", "Condition met"),
    ("C/C=C/c1cc(Nc2cc(N3CCN(C)CC3)nc(Oc3ccc4[nH]c(C)cc4c3F)n2)n[nH]1", "MV4.11", "Condition met"),
    ("Cc1cc2c(F)c(Oc3nc(Nc4cc(C5CC5)[nH]n4)cc(N4CCNCC4)n3)cc(F)c2[nH]1", "MV4.11", "Condition not met"),
    ("Cc1cc2c(F)c(Oc3nc(Nc4cc(C5CC5)[nH]n4)cc(N4CCN(C)CC4)n3)ccc2[nH]1", "MV4.11", "Condition met"),
    ("C/C=C/c1cc(Nc2cc(N3CCNCC3)nc(Oc3ccc4[nH]c(C)cc4c3F)n2)n[nH]1", "MV4.11", "Condition met"),
    ("Cc1cc2c(F)c(Oc3nc(Nc4cc(C5CC5)[nH]n4)cc(N4CCN(CCO)CC4)n3)cc(F)c2[nH]1", "MV4.11", "Condition not met"),
    ("Cc1cc2c(F)c(Oc3nc(Nc4cc(C5CC5)[nH]n4)cc(N4CCN(CCO)CC4)n3)ccc2[nH]1", "MV4.11", "Condition not met"),
]
